Values from PubChem BioAssay AID1159580

assay: chemical genetic growth profiling, strain panel (AID 1159580);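 also: tested at 20 µM; growth read once vehicle control cultures reached saturation at 30 °C; 1 = growth at the plate median or of vehicle wells; lower values mean less growth of the strain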; conditions: S. cerevisiae deletion strains, growth OD, locus YER155C, strain BEM2, stronger effect = lower value
In all, about 5,500 compounds went through this assay and about 2,000 (36%) were called active. Not shown: some 18% with an inconclusive outcome. The list shows a part of the results.
parameter: normalized growth
Form rule: numeric answer, no unit written next to it.

Take a look at these entries with their results.
**Query** Sample "NCCNC(=O)c1ccc(Cl)cc1" — what was its normalized growth?
**Result** 0.999

**Query** Data request, read-out normalized growth, for C=CC(C1=CC(=O)C(OC)=CC1=O)c1ccccc1 (configuration not stated)
**Result** 0.956

**Query** Reported normalized growth, compound "C/C=C/c1ccc2c(c1)OCO2" : ____
**Result** 1.01

**Query** For the compound shown here, O=C1O[C@H](C(O)CO)C(O)=C1O (some centres not stated) , give the reported normalized growth.
**Result** 0.976

**Query** Could you share which normalized growth value was measured for CC1(C)C(=O)C=C[C@@]2(C)C1=C(O)C(=O)[C@]1(C)C2CC[C@@]2(C)[C@H](c3ccoc3)C[C@H]3O[C@]321 (some centres not stated) ?
**Result** 0.57

***
**Query** Bench note: what normalized growth did "O=C(CCCCCCCCCCCCC1CCCC1)Nc1ccc(S(=O)(=O)c2ccc(NC(=O)CCCCCCCCCCCCC3CCCC3)cc2)cc1" show?
**Result** 1.02

**Query** I would be grateful if you could share the reported normalized growth for "OC[C@@H]1CCCN2CCCC[C@H]12" .
**Result** 0.996

**Query** Would you kindly share the measured normalized growth for "CN/C(=C\[N+](=O)[O-])NCCSCc1ccc(CN(C)C)o1" ?
**Result** 1.01

**Query** Query (compound): "Nc1ccc(S(=O)(=O)Nc2ccccn2)cc1" ; field requested: normalized growth
**Result** 1.01

**Query** Fill blank: measured normalized growth of the compound "O=C(O)CCC(=O)C(=O)O" is ____.
**Result** 1

**Query** Sample "CC(=O)Oc1ccc(Cl)c2cccnc12" — what was its normalized growth?
**Result** 0.0723

**Query** Which normalized growth value is on record for CC(C)NCC(O)c1ccc2ccccc2c1 (configuration not stated) ?
**Result** 1.01
